assay: Aqueous solubility by UV/Vis spectroscopy
Format: physicochemical
condition-label: aqueous, dianionic state (disodium salt)
property-label: Solubility

1. COC(=O)[C-](C#N)C1=C([C-](C#N)C(=O)OC)C1=C(C#N)C#N.[Na+].[Na+] (stereo not shown) [Compound 3, diester-tetracyano [3] radialene dianion]: 450 mM
2. COC(=O)C(C#N)=C1C([C-](C#N)C(=O)OC)=C1[C-](C#N)C(=O)OC.[Na+].[Na+] (stereo not shown) [Compound 4]: 820 mM
3. N#CC(C#N)=C1C([C-](C#N)C#N)=C1[C-](C#N)C#N.[Na+].[Na+] [Compound 1, Hexacyano[3] radialene (Na2C6(CN)6)]: <100 mM
4. COC(=O)C(C#N)=C1C([C-](C#N)C#N)=C1[C-](C#N)C#N.[Na+].[Na+] [Compound 2]: 190 mM

* * *

assay: Cyclic voltammetry in water (GC working electrode, Ag/AgCl reference)
Format: physicochemical
condition-label: in water
property-label: ipc/ipa

1) COC(=O)C(C#N)=C1C([C-](C#N)C(=O)OC)=C1[C-](C#N)C(=O)OC.[Na+].[Na+] (stereo not shown): 1.15
2) N#CC(C#N)=C1C([C-](C#N)C#N)=C1[C-](C#N)C#N.[Na+].[Na+] [Compound 1, Hexacyano[3] radialene (Na2C6(CN)6)]: 1.03
3) COC(=O)[C-](C#N)C1=C([C-](C#N)C(=O)OC)C1=C(C#N)C#N.[Na+].[Na+] (stereo not shown) [Compound 3, diester-tetracyano [3] radialene dianion]: 1.06
4) COC(=O)C(C#N)=C1C([C-](C#N)C#N)=C1[C-](C#N)C#N.[Na+].[Na+]: 0.97

* * *

assay: Aqueous solubility by UV/Vis spectroscopy
Assay type: physicochemical
condition-label: aqueous, radical anionic state
property-label: Radical Anion Solubility

1. N#CC(C#N)=C1C([C-](C#N)C#N)=C1[C-](C#N)C#N.[Na+].[Na+] [Compound 1, Hexacyano[3] radialene (Na2C6(CN)6)]: <25 mM
2. COC(=O)[C-](C#N)C1=C([C-](C#N)C(=O)OC)C1=C(C#N)C#N.[Na+].[Na+] (stereo not shown) [Compound 3, diester-tetracyano [3] radialene dianion]: 170 mM
3. COC(=O)C(C#N)=C1C([C-](C#N)C(=O)OC)=C1[C-](C#N)C(=O)OC.[Na+].[Na+] (stereo not shown): <25 mM
4. COC(=O)C(C#N)=C1C([C-](C#N)C#N)=C1[C-](C#N)C#N.[Na+].[Na+]: 80 mM

* * *

assay: Cyclic voltammetry in water (GC working electrode, Ag/AgCl reference)
Format: physicochemical
condition-label: in water
property-label: E^ox1/2 (V)

1) COC(=O)[C-](C#N)C1=C([C-](C#N)C(=O)OC)C1=C(C#N)C#N.[Na+].[Na+] (stereo not shown) [Compound 3, diester-tetracyano [3] radialene dianion]: 0.35
2) COC(=O)C(C#N)=C1C([C-](C#N)C#N)=C1[C-](C#N)C#N.[Na+].[Na+]: 0.4
3) COC(=O)C(C#N)=C1C([C-](C#N)C(=O)OC)=C1[C-](C#N)C(=O)OC.[Na+].[Na+] (stereo not shown): 0.27
4) N#CC(C#N)=C1C([C-](C#N)C#N)=C1[C-](C#N)C#N.[Na+].[Na+] [Compound 1, Hexacyano[3] radialene (Na2C6(CN)6)]: 0.48

* * *

assay: Conductivity of aqueous solutions
Type: physicochemical
condition-label: first value of the pair
Each item that follows carries a reported Conductivity.
property-label: Conductivity (mS/cm)

1. COC(=O)[C-](C#N)C1=C([C-](C#N)C(=O)OC)C1=C(C#N)C#N.[Na+].[Na+] (stereo not shown) [Compound 3, diester-tetracyano [3] radialene dianion]: 36.7
2. COC(=O)C(C#N)=C1C([C-](C#N)C#N)=C1[C-](C#N)C#N.[Na+].[Na+]: 15.7
3. COC(=O)C(C#N)=C1C([C-](C#N)C(=O)OC)=C1[C-](C#N)C(=O)OC.[Na+].[Na+] (stereo not shown): 39
4. N#CC(C#N)=C1C([C-](C#N)C#N)=C1[C-](C#N)C#N.[Na+].[Na+] [Compound 1, Hexacyano[3] radialene (Na2C6(CN)6)]: 13.2

The origin of these recorded values is patent US12630500B2.
